molecular target: N-acetyllactosaminide alpha-1,3-galactosyltransferase (Bos taurus)
Sequence (P14769 whole entry): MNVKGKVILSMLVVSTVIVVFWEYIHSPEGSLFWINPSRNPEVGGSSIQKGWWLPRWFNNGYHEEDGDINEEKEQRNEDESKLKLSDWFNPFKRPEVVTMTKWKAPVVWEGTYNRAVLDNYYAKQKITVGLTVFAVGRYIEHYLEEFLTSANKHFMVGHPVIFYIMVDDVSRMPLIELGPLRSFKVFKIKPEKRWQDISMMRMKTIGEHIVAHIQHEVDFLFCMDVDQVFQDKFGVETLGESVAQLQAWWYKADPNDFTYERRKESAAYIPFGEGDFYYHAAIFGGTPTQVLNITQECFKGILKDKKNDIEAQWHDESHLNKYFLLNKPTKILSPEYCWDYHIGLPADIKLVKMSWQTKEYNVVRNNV
reported endpoint: pKi
Numbers only, as −log10 of the molar value.

Give a short answer stating reported pKi for O=Cc1ccc(-c2cn([C@@H]3O[C@H](COP(=O)(O)OP(=O)(O)CC[C@H]4O[C@H](CO)[C@H](O)[C@H](O)[C@H]4O)[C@@H](O)[C@H]3O)c(=O)[nH]c2=O)s1 . 4.74
